- assay name: fluorescence interference in NS3h DNA assay – biochemical, ChemBridge library, Cy5 readout, artefact control for HCV NS3 helicase inhibitor project (AID 720488)
- run parameters: Cy5-dT15 DNA with NS3h, at 100 µM, actives lie on both sides, signal over control mean, under 1 quenches
Hit rate of the full screen: of about 16,000 compounds, about 960 (6%) were called active. This excerpt belongs to a sample that is enriched for actives.
Measured fluorescence interference ratio, listed per entry for reference.

given smiles: CCOC(=O)c1sc(NC(=O)c2ccc(OC)cc2)c(C(=O)OCC)c1C
fluorescence interference ratio: 1.02
--
given smiles: CCN1C(=O)C(=Cc2ccc(O)cc2)C(=O)NC1=S
fluorescence interference ratio: 1.02
--
given smiles: O=C(Nc1nc2ccccc2s1)c1ccc2c(c1)OCO2
fluorescence interference ratio: 0.992
--
given smiles: COc1ccc(C(=O)COc2cc3c(C(=O)OC(C)C)c(C)oc3cc2Br)cc1
fluorescence interference ratio: 1
